- System: wheat
- experiment_summary: Test A pre-/postemergence herbicide test
- Assay type: in vivo, Triticum aestivum
- reported_conditions: Postemergence, 125 g ai/ha; 0 to 100 scale, 0 no effect, 100 complete control
- From the text: […]
readout_type: Plant response rating, Wheat
Reply with just the number.

Using known records, supply Plant response rating, Wheat for O=C1NC[C@@H](c2ccc(F)c(F)c2)[C@@H]1C(=O)Nc1ccccc1F 0

Using known records, supply Plant response rating, Wheat for O=C1NCC(c2ccc(Cl)nc2)C1C(=O)Nc1ccccc1C(F)(F)F (stereo not shown) 0

Using known records, supply Plant response rating, Wheat for N#Cc1ccccc1NC(=O)C1C(=O)NCC1c1ccccc1 (racemic) 0

Using known records, supply Plant response rating, Wheat for O=C1NCC(c2cccc(OC(F)(F)C(F)F)c2)C1C(=O)Nc1ccc(F)c(F)c1F (racemic) 30

* * *

- Test system: pigweed
- experiment_summary: Test A pre-/postemergence herbicide test
- Type: in vivo, Amaranthus retroflexus
- reported_conditions: preemergence; 500 g ai/ha; 0 to 100 scale, 0 is no effect and 100 is complete control
readout_type: Plant response rating, Pigweed
Reply with just the number.

Using known records, supply Plant response rating, Pigweed for O=C1NCC(c2cc3ccccc3o2)C1C(=O)Nc1ccccc1F (racemic) [Compound 281] 0

Using known records, supply Plant response rating, Pigweed for O=C1NCC(c2cccc(OC(F)F)c2)C1C(=O)Nc1ccccc1F (centres unmarked) [Compound 223] 50

Using known records, supply Plant response rating, Pigweed for O=C1NCC(c2cccc(OC(F)F)c2)C1C(=O)Nc1ccccc1C(F)(F)F (centres unmarked) [Compound 222] 30

Using known records, supply Plant response rating, Pigweed for CN1CC(c2ccc(F)cc2)C(C(=O)Nc2cccc(F)c2F)C1=O (centres unmarked) [Compound 271] 80

Using known records, supply Plant response rating, Pigweed for O=C1NCC(c2cccc(Cl)c2)C1C(=O)Nc1cccc(F)c1F (racemic) [Compound 275] 30

Using known records, supply Plant response rating, Pigweed for O=C1NCC(c2ccc(C(F)(F)F)c(Cl)c2)C1C(=O)Nc1ccccc1C(F)(F)F (racemic) [Compound 251] 30

Using known records, supply Plant response rating, Pigweed for O=C1NCC(c2ccc(C(F)(F)F)c(F)c2)C1C(=O)Nc1ccccc1C(F)(F)F (racemic) [Compound 248] 0

Using known records, supply Plant response rating, Pigweed for O=C1NCC(c2ccc(-c3ccccc3C(F)(F)F)cc2)C1C(=O)Nc1cccc(F)c1F (centres unmarked) [Compound 236] 0

Using known records, supply Plant response rating, Pigweed for O=C1NCC(c2ccc(Cl)cc2)C1C(=O)Nc1ccccc1F (centres unmarked) [Compound 217] 40

Using known records, supply Plant response rating, Pigweed for O=C1NCC(c2cccc(C(F)(F)F)c2)C1C(=O)Nc1cccc(F)c1 (racemic) [Compound 208] 0

Using known records, supply Plant response rating, Pigweed for O=C1NCC(c2ccc(OC(F)(F)C(F)F)cc2)C1C(=O)Nc1cccc(F)c1F (racemic) [Compound 172] 0

Using known records, supply Plant response rating, Pigweed for O=C1NCC(c2cccc(C(F)(F)F)c2)C1C(=O)Nc1ccc(F)cc1F (racemic) [Compound 207] 20

Using known records, supply Plant response rating, Pigweed for O=C1NCC(c2cc3ccccc3s2)C1C(=O)Nc1ccccc1F (centres unmarked) [Compound 295] 0

Using known records, supply Plant response rating, Pigweed for O=C1NCC(c2ccc(C(F)(F)F)c(Cl)c2)C1C(=O)Nc1ccccc1F (racemic) [Compound 249] 0

Using known records, supply Plant response rating, Pigweed for O=C1NCC(c2ccc(C(F)(F)F)c(Cl)c2)C1C(=O)Nc1cccc(F)c1F (racemic) [Compound 250] 0

Using known records, supply Plant response rating, Pigweed for O=C1NCC(c2ccc(OC(F)(F)F)cc2)C1C(=O)Nc1cccc(F)c1F (racemic) [Compound 257] 0

Using known records, supply Plant response rating, Pigweed for O=C1NCC(c2cnn(CC(F)(F)F)c2)C1C(=O)Nc1cccc(F)c1F (centres unmarked) [Compound 299] 0
